Target: Mannose-6-phosphate isomerase (Homo sapiens) (UniProt P34949)
Sequence (P34949 whole entry, looked up): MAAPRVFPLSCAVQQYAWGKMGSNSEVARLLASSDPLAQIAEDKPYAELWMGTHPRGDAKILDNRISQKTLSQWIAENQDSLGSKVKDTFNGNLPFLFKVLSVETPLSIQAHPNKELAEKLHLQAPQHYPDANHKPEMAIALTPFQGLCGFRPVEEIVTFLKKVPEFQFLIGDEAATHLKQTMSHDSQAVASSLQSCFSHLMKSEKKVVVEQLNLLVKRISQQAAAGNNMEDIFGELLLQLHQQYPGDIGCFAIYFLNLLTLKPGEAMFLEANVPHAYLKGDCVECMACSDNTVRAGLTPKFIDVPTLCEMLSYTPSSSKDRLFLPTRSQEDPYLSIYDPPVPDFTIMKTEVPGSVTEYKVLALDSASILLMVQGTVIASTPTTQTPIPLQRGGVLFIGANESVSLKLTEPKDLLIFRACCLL
Test: MPI activation at elevated mannose 6-phosphate – biochemical, fluorescence intensity, near-saturating mannose 6-phosphate, primary screen (AID 1216)
Conditions: coupled PMI enzyme assay, resazurin fluorescence, 20 min; at 20 µM; 1 = untreated enzyme, 0 = substrate-free blank
About 660 (0.35%) of roughly 190,000 compounds were called active.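 The calls were made as follows: active = activation factor of 2 or more at 20 µM; inactive = the rest.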 The full list was thinned out, with actives kept by preference.
Hello, when you answer, please use one of the following outcomes: Yes (active), No (inactive)

Query: Would you mind telling me which call this test gave CCNC(=S)NNC(=O)c1ccc2ncccc2c1 ?
Reply: No

Query: Again, but for Cc1cccc(C)c1NC(=O)c1ccc(CN2CCc3ccccc3C2)cc1
Reply: No

Query: Again, but for Cc1cccc(C)c1NC(=O)C1(C)c2cccc[n+]2CC(=O)N1Cc1cccs1 (stereo not given)
Reply: Yes

Query: Again, but for O=C(O)c1ccc(N/N=C/c2cn(-c3ccccc3)nc2-c2cccs2)cc1
Reply: No

Query: Again, but for CCc1cccc(C)c1NC(=S)N(CCCN1CCN(C)CC1)Cc1cccs1
Reply: No

* * *

Target: Mannose-6-phosphate isomerase (Homo sapiens) (UniProt P34949)
Assay: MPI activation at elevated mannose 6-phosphate – biochemical, fluorescence intensity, near-saturating mannose 6-phosphate, primary screen (AID 1216)
Conditions: coupled PMI enzyme assay, resazurin fluorescence, 20 min; at 20 µM; 1 = untreated enzyme, 0 = substrate-free blank
Hit rate of the full screen: of about 190,000 compounds, about 660 (0.35%) were called active.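 How the source made its calls: active means activation factor of 2 or more at 20 µM; inactive means the rest.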 For the sample, actives were picked, then their nearest neighbours and some compounds at random.
Hello, when you answer, please use one of the following outcomes: active, inactive

Query: Would you mind telling me which call this test gave Nc1ncc(-c2cc3ccccc3oc2=O)s1 ?
Reply: inactive

Query: Again, but for CCOC(=O)N1CCN(C(=O)Cn2cnc3ccccc3c2=O)CC1
Reply: inactive

Query: Again, but for Cc1cc(C(=O)N/N=C/c2ccc(N3CCOCC3)cc2)c(C)o1
Reply: inactive

Query: Again, but for O=C(NC1CCCC1)C(c1ccc(N2CCOCC2)cc1)N(C(=O)c1ccco1)c1ccccc1F (configuration not stated)
Reply: inactive

Query: Again, but for Cc1ccc(N/N=C2\COC(C)(C)CC2=O)cc1
Reply: inactive

Query: Again, but for Cn1c(CO)cnc1SCc1ccccc1
Reply: inactive

Query: Again, but for COc1ccc(CNC2CCCCC2)cc1
Reply: inactive

Query: Again, but for O=c1oc2ccccc2cc1-c1cn(-c2ccccc2)c(=S)[nH]1
Reply: active

Query: Again, but for Cc1ccccc1N/N=C/c1ccc(N2CCOCC2)cc1
Reply: active

Query: Again, but for COc1ccc(OC)c(NC(=O)CN(Cc2ccc(Cl)cc2)S(C)(=O)=O)c1
Reply: inactive

Query: Again, but for CCOC(=O)N1CCC(=NNC(N)=O)CC1
Reply: inactive

Query: Again, but for CN1CCN(S(=O)(=O)c2cccc(C(=O)O)c2)CC1
Reply: inactive

* * *

Target: Mannose-6-phosphate isomerase (Homo sapiens)
Test: MPI activation at elevated mannose 6-phosphate – biochemical, fluorescence intensity, near-saturating mannose 6-phosphate, primary screen (AID 1216)
Settings: coupled PMI enzyme assay, resazurin fluorescence, 20 min; at 20 µM; stronger effect = higher value; 1 = untreated enzyme, 0 = substrate-free blank
Out of some 190,000 compounds screened, about 660 (0.35%) were called active. This is one part of a sample in which actives are shown more often than they occur.
Rule: true (1) for activation factor not less than 1, false (0) for anything less.

Query: Tell me whether activation factor is at least 1 here: COC(=O)C(NS(=O)(=O)c1ccc(F)cc1)c1ccccc1 (stereo not given)
Reply: false (0)

Query: Again, but for COc1ccc(-c2c3c(=O)n(C)c(=O)n(C)c3cn2-c2cccc(OC)c2)cc1
Reply: true (1)

Query: Again, but for COc1ccc(-c2c3c(=O)n(C)c(=O)n(C)c3cn2NC(C)=O)cc1
Reply: true (1)

Query: Again, but for COc1ccc(Br)cc1/C=N/Nc1ccc(Cl)c(C(=O)O)c1
Reply: true (1)

Query: Again, but for Cc1ccc(N/C(N)=N/c2nc(C(F)(F)F)cc(C(F)(F)F)n2)cc1
Reply: true (1)

Query: Again, but for CCCCC(NS(=O)(=O)c1ccc(C)cc1)C(=O)Oc1ccc2c3c(c(=O)oc2c1)CCC3 (stereo not given)
Reply: false (0)

Query: Again, but for COc1ccc(N/N=C2/CCCCC2=O)cc1
Reply: true (1)
